Cited source: a collection of fitness landscapes (doi:10.1126/science.1257360)

B1: PhoQ; a variant is named by its letters at X, in order, P23837 (parent)
chain: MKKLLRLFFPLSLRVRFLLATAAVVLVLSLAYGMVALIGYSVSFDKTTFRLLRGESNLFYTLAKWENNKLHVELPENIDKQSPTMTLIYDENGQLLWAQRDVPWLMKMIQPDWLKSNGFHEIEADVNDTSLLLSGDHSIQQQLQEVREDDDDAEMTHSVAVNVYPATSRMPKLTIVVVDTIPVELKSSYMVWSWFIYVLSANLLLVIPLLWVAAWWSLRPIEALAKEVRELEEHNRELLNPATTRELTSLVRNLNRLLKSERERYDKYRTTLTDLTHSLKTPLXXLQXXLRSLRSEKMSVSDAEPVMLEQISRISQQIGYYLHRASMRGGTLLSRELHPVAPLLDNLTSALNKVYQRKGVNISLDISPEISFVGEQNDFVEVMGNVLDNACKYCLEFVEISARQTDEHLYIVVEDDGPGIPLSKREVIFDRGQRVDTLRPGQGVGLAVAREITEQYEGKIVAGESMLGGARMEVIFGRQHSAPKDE

- Variants of: B1
- assay_protocol: enrichment ratio after two sorts for PhoP signalling (ratio (wild type AVST 3.29)); higher = more functional
- protocol_conditions: with PhoP (E. coli)
Whole data set: some 140,000 sequences, median “enrichment ratio after two sorts for PhoP signalling” near 0, cut for the highest 2% near 11. The entries come from a sample that favours the highest values as a whole.
quantity_name: enrichment ratio

Answered cases to consult:
Value of measured enrichment ratio for the entry `FQWS` : ≤ 0.25

Value of measured enrichment ratio for the entry `TNVA` : ≤ 0.25

Value of measured enrichment ratio for the entry `QGCS` : ≤ 0.25

Value of measured enrichment ratio for the entry `QGYK` : 0.706

Value of measured enrichment ratio for the entry `FFWS` : ≤ 0.25

Value of measured enrichment ratio for the entry `SHKM` : ≤ 0.25

Value of measured enrichment ratio for the entry `QGGG` : 17.7

Value of measured enrichment ratio for the entry `RPMT` : ≤ 0.25

More entries:
Value of measured enrichment ratio for the entry `TNCH` : ≤ 0.25

Value of measured enrichment ratio for the entry `WRPH` : ≤ 0.25

Value of measured enrichment ratio for the entry `QGCK` : ≤ 0.25
